# System: UACC-257 melanoma
# measurementNotes: NCI tumour cell line growth inhibition, 48 h
Listed next: entries and their corresponding TGI.

{"compound": "c1cc(CCN2CCCCC2)ccn1", "targetUnderTest": "UACC-257 melanoma", "TGI": "> 100 µM"}
{"compound": "Cc1ccc(S(=O)(=O)NNC(=O)c2sc(-c3nc(C)c(C(=O)NNS(=O)(=O)c4ccc(C)cc4)s3)nc2C)cc1", "targetUnderTest": "UACC-257 melanoma", "TGI": "> 100 µM"}

// Input: COc1ccc(N=Nc2ccc3oc(=O)c(C(=O)Nc4ccccc4)cc3c2)cc1 . Output its TGI only. > 10 µM

// Input: O=C(/C=C/c1cccs1)c1ccc(Nc2nc(Nc3ccc(F)cc3)nc(Nc3ccc(F)cc3)n2)cc1 . Output its TGI only. > 100 µM

// Input: CC(C)C1OC2(C)OC(=N)C1(C#N)C(C#N)(C#N)C2C (stereo not given) . Output its TGI only. > 100 µM

// Input: COC(=O)C1C2C=CC(C2)C1(C(=O)OC)S(=O)CC12CCC(CC1O)C2(C)C (stereo not given) . Output its TGI only. > 100 µM
